# measured_target: recombinant human Bcl-2 D103Y protein (Homo sapiens (Human), UniProt P10415, D103Y)
# Sequence (P10415 whole entry D103Y): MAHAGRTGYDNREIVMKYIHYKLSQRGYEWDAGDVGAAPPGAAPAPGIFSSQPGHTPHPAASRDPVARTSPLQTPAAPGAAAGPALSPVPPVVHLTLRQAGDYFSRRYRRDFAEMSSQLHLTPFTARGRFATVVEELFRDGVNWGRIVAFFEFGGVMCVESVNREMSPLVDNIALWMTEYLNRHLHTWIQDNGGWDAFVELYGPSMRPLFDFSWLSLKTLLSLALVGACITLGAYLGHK
# protocol_notes: Bcl-2-D103Y Biochemical Assay (TR-FRET)
# details: TR-FRET, FITC labeled Bak peptide
pIC50: −log10 of the molar value.
The reader will find reported pIC50 values listed item by item below.
parameter_measured: pIC50

compound: CCOc1cc(CN2CCN(C3CC4(CCN(c5ccc(C(=O)NS(=O)(=O)c6ccc(NC[C@H]7CC[C@](C)(O)CC7)c([N+](=O)[O-])c6)c(Oc6cnc7[nH]ccc7c6)c5)CC4)C3)C(c3ccccc3C(C)C)C2)ccc1OC (stereo partly shown) [Example 124]
parameter_measured: pIC50
observed_result: 9.68

compound: COc1cc(CN2CCN(C3CC4(C3)CN(c3ccc(C(=O)NS(=O)(=O)c5ccc(NC[C@H]6CC[C@](C)(O)CC6)c([N+](=O)[O-])c5)c(Oc5cnc6[nH]ccc6c5)c3)C4)[C@H](c3ccccc3C(C)C)C2)cc2c1OCCC2 [Example 318]
parameter_measured: pIC50
observed_result: 10.28

compound: Cc1ccc(CN2CCN(C3CC4(CCN(c5ccc(C(=O)NS(=O)(=O)c6ccc(NC[C@H]7CC[C@](C)(O)CC7)c([N+](=O)[O-])c6)c(Oc6cnc7[nH]ccc7c6)c5)CC4)C3)C(c3ccccc3C(C)C)C2)cc1 (stereo partly shown) [Example 30]
parameter_measured: pIC50
observed_result: 9.38

compound: COc1ccc(CN2CCN(C3CC4(CCN(c5ccc(C(=O)NS(=O)(=O)c6ccc(NC[C@H]7COCCO7)c([N+](=O)[O-])c6)c(Oc6cnc7[nH]ccc7c6)c5)CC4)C3)[C@H](c3ccccc3C(C)C)C2)cc1 (single isomer, unassigned) [Example 33]
parameter_measured: pIC50
observed_result: 10.03

compound: CC(C)c1ccccc1C1CN(Cc2ccc(F)c(F)c2)CCN1C1CC2(CCN(c3ccc(C(=O)NS(=O)(=O)c4ccc(NC[C@H]5CC[C@](C)(O)CC5)c([N+](=O)[O-])c4)c(Oc4cnc5[nH]ccc5c4)c3)CC2)C1 (stereo partly shown) [Example 52]
parameter_measured: pIC50
observed_result: 9.21

compound: [2H]C([2H])([2H])Oc1cc(CN2CCN(C3CC4(C3)CN(c3ccc(C(=O)NS(=O)(=O)c5ccc(NC[C@H]6CC[C@](C)(O)CC6)c([N+](=O)[O-])c5)c(Oc5cnc6[nH]cc(F)c6c5)c3)C4)[C@H](c3ccccc3C(C)C)C2)cc2c1OCC2(C)C [Example 326]
parameter_measured: pIC50
observed_result: 9.60

compound: COc1ccc(CN2CCN(C3CC4(CCN(c5ccc(C(=O)NS(=O)(=O)c6ccc(NCC7(F)CCC(C)(O)CC7)c([N+](=O)[O-])c6)c(Oc6cnc7[nH]ccc7c6)c5)CC4)C3)[C@H](c3ccccc3C(C)C)C2)cc1 (stereo partly shown) [Example 226]
parameter_measured: pIC50
observed_result: 9.80

====

The reader will find reported IC50 values listed item by item below.
# measured_target: Recombinant human Bcl-2 protein (Homo sapiens (Human))
# Sequence (P10415 whole entry): as the sequence (P10415 whole entry D103Y) above, with Y103D counted along it
# protocol_notes: Bcl-2 TR-FRET Assay
# Type: binding
# details: wild type Bcl-2; unit inferred; read-out: Bcl-2 WT

compound: COc1cc(CN2CCN(C3CC4(CCN(c5ccc(C(=O)NS(=O)(=O)c6ccc(NC[C@H]7CC[C@](C)(O)CC7)c([N+](=O)[O-])c6)c(Oc6cnc7[nH]cc(F)c7c6)c5)CC4)C3)[C@H](c3ccccc3C(C)C)C2)ccc1F
IC50, nM: 0.23

compound: COc1cc(CN2CCN(C3CC4(CCN(c5ccc(C(=O)NS(=O)(=O)c6ccc(NC[C@H]7CC[C@](C)(O)CC7)c([N+](=O)[O-])c6)c(Oc6cnc7[nH]cc(F)c7c6)c5)CC4)C3)[C@H](c3ccccc3C(C)C)C2)ccc1C1CC1
IC50, nM: 0.85

compound: COc1cc(CN2CCN(C3CC4(C3)CN(c3ccc(C(=O)NS(=O)(=O)c5ccc(NC[C@H]6CC[C@](C)(O)CC6)c([N+](=O)[O-])c5)c(Oc5cnc6[nH]ccc6c5)c3)C4)[C@H](c3ccccc3C(C)C)C2)ccc1OC1CC1
IC50, nM: 0.11

compound: [2H]C([2H])([2H])Oc1cc(CN2CCN(C3CC4(C3)CN(c3ccc(C(=O)NS(=O)(=O)c5ccc(NC[C@H]6CC[C@](C)(O)CC6)c([N+](=O)[O-])c5)c(Oc5cnc6[nH]ccc6c5)c3)C4)[C@H](c3ccccc3C(C)C)C2)cc2ccoc12
IC50, nM: 0.22

compound: [2H]C([2H])([2H])Oc1ccc(CN2CCN(C3CC4(C3)CN(c3ccc(C(=O)NS(=O)(=O)c5ccc(NC[C@H]6CC[C@](C)(O)CC6)c([N+](=O)[O-])c5)c(Oc5cnc6[nH]cc(F)c6c5)c3)C4)[C@H](c3ccccc3C(C)C)C2)cc1
IC50, nM: 0.1

compound: COc1cc(CN2CCN(C3CC4(C3)CN(c3ccc(C(=O)NS(=O)(=O)c5ccc(NC[C@H]6CC[C@](C)(O)CC6)c([N+](=O)[O-])c5)c(Oc5cnc6[nH]cc(F)c6c5)c3)C4)[C@H](c3ccccc3C(C)C)C2)cc2c1OCC2(C)C
IC50, nM: 0.19

compound: COc1ccc(CN2CCN(C3CC4(C3)CN(c3ccc(C(=O)NS(=O)(=O)c5ccc(NC[C@H]6CC[C@](C)(O)CC6)c([N+](=O)[O-])c5)c(Oc5cnc6[nH]ccc6c5)c3)C4)C(c3ccccc3C(C)C)C2)cc1 (stereo partly drawn)
IC50, nM: 0.079

compound: CC(C)c1ccccc1C1CN(Cc2cccc(F)c2)CCN1C1CC2(CCN(c3ccc(C(=O)NS(=O)(=O)c4ccc(NC[C@H]5CC[C@](C)(O)CC5)c([N+](=O)[O-])c4)c(Oc4cnc5[nH]ccc5c4)c3)CC2)C1 (stereo partly drawn)
IC50, nM: 0.31

compound: CC(C)c1ccccc1C1CN(C2CCC2)CCN1C1CC2(CCN(c3ccc(C(=O)NS(=O)(=O)c4ccc(NC[C@H]5CC[C@](C)(O)CC5)c([N+](=O)[O-])c4)c(Oc4cnc5[nH]ccc5c4)c3)CC2)C1 (stereo partly drawn)
IC50, nM: 0.037
